Target entity: Histamine H4 receptor (Homo sapiens, UniProt Q9H3N8)
Sequence (Q9H3N8 whole entry): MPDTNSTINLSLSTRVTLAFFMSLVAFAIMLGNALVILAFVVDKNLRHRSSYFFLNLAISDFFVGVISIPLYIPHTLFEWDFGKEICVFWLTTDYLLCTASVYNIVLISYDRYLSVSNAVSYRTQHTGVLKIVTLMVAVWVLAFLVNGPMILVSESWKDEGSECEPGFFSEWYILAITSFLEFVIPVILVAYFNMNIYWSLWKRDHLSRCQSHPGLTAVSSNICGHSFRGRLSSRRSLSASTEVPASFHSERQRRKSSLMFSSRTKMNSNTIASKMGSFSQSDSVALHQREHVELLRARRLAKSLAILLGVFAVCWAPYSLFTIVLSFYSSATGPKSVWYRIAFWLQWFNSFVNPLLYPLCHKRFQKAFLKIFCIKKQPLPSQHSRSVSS
Procedure text: Displacement of [3H]histamine from wild type human histamine H4 receptor transfected in HEK293T cells after 1.5 hrs by liquid scintillation counting analysis
Recorded Ki, one value per entry.
Parameter: Ki (nM)

CN1CCN(c2cc(-c3ccc(Cl)cc3)nc(N)n2)CC1; 2
CN1CCN(c2cc(-c3ccc([N+](=O)[O-])cc3)nc(N)n2)CC1; 7.94
CN1CCN(c2cc(-c3ccc(N)cc3)nc(N)n2)CC1; 5.01
COc1ccc(-c2cc(N3CCN(C)CC3)nc(N)n2)cc1; 15.8
COc1ccc2[nH]c(C(=O)N3CCN(C)CC3)cc2c1; 5010
CN1CCN(C(=O)c2cc3cc([N+](=O)[O-])ccc3[nH]2)CC1; 100
